# Tested on: HLA-A*23:01
# Assay comment: IEDB peptide-MHC binding, purified MHC/competitive/radioactivity; filed as Kd, often an IC50 or EC50 that approximates it; bounds were set here for any values at or beyond the usual limits of such assays
# Settings: source organism: Mammarenavirus guanaritoense
Recorded metric: Kd (nM)
Answer format: numeric, nM implied, no suffix.

SFYSDPKRFF = 226
YVQRFFLRV = 4270
MYEMHRESLL = 870

Proceed to the following item.
Supply recorded Kd for `VFQAKSAFV` here. 855

---

# Tested on: HLA-A*68:02
# Assay comment: IEDB peptide-MHC binding, purified MHC/direct/fluorescence; filed as Kd, often an IC50 or EC50 that approximates it; bounds were set here for any values at or beyond the usual limits of such assays
# Settings: source organism: Vibrio cholerae V52
Recorded metric: Kd

Supply recorded Kd for `LPYPVLLKI` here. ≥ 20 µM

---

# Tested on: HLA-A*02:01
# Assay comment: IEDB peptide-MHC binding, purified MHC/direct/fluorescence; filed as Kd, often an IC50 or EC50 that approximates it; bounds were set here for any values at or beyond the usual limits of such assays
# Settings: source organism: Edwardsiella tarda
pKd: −log10 of the molar value.
Recorded metric: pKd

Answer with pKd of `AFGLFWLVW` measured for HLA-A*02:01. ≤ 4.70

---

# Tested on: HLA-A*26:01
# Assay comment: IEDB peptide-MHC binding, purified MHC/competitive/radioactivity; filed as Kd, often an IC50 or EC50 that approximates it; bounds were set here for any values at or beyond the usual limits of such assays
# Settings: source organism: Vaccinia virus WR
Recorded metric: pKd
Schema: pKd number; meaning minus log10 of the concentration expressed in molar units.

Supply recorded pKd for `KTSTLIFFV` here. 5.32

---

# Tested on: HLA-A*02:11
# Assay comment: IEDB peptide-MHC binding, purified MHC/competitive/fluorescence; filed as Kd, often an IC50 or EC50 that approximates it; bounds were set here for any values at or beyond the usual limits of such assays
# Settings: source organism: Yersinia mollaretii ATCC 43969
Recorded metric: Kd

Supply recorded Kd for `DEQEFFYSQ` here. ≥ 20 µM

---

# Tested on: HLA-A*01:01
# Assay comment: IEDB peptide-MHC binding, purified MHC/direct/fluorescence; filed as Kd, often an IC50 or EC50 that approximates it; bounds were set here for any values at or beyond the usual limits of such assays
# Settings: source organism: Giardia lamblia ATCC 50803
pKd: −log10 of the molar value.
Recorded pKd by entry

These recorded examples may help you get a feel for the data.
SYPPPPASF = ≤ 4.70
DIIRAHPWF = ≤ 4.70

Answer with pKd of `ETKKRMDYF` measured for HLA-A*01:01. ≤ 4.70

---

# Tested on: HLA-B*40:01
# Assay comment: IEDB peptide-MHC binding, purified MHC/competitive/radioactivity; filed as Kd, often an IC50 or EC50 that approximates it; bounds were set here for any values at or beyond the usual limits of such assays
# Settings: source organism: Hepatitis C virus (isolate 1)
Recorded metric: Kd

Supply recorded Kd for `KLVALGINAV` here. ≥ 69.6 µM

---

# Tested on: HLA-A*68:01
# Assay comment: IEDB peptide-MHC binding, purified MHC/competitive/radioactivity; filed as Kd, often an IC50 or EC50 that approximates it; bounds were set here for any values at or beyond the usual limits of such assays
# Settings: source organism: Vaccinia virus WR
Recorded metric: pKd
Schema: pKd number; meaning minus log10 of the concentration expressed in molar units.

These recorded examples may help you get a feel for the data.
PSIFLIITK = 5.38
TLISLNSMY = 7.33
ILSDIISAEK = 8.37
SIENKHQRR = 6.20
MLTNAISSR = 7.87

Supply recorded pKd for `TTKDYFSFK` here. 8.97

Supply recorded pKd for `SVLCVKKFY` here. 5.68

Supply recorded pKd for `LFDFVNFVK` here. 6.89

Supply recorded pKd for `LVYFSTQQNK` here. 8.39

Supply recorded pKd for `MLYQLLEAVY` here. 5.47

Supply recorded pKd for `QIFNEDTSY` here. 5.20

Supply recorded pKd for `VSLSAYIIR` here. 5.48

Supply recorded pKd for `DVSMMSMYGK` here. 8.92

Supply recorded pKd for `TSSFREKSR` here. 6.88

Supply recorded pKd for `IVHSYLKNYK` here. 6.59

Supply recorded pKd for `IMLEGETKLY` here. 6.00

Supply recorded pKd for `YANCSSISIK` here. 7.29

Supply recorded pKd for `KTSKTTILSK` here. 5.40

Supply recorded pKd for `TIRHMWSVVY` here. 5.54

Supply recorded pKd for `EIMDKEQLLK` here. 8.27

Supply recorded pKd for `VSMTYLYNK` here. 7.08

Supply recorded pKd for `IAEFVKENER` here. 6.77

---

# Tested on: HLA-B*18:01
# Assay comment: IEDB peptide-MHC binding, purified MHC/competitive/radioactivity; filed as Kd, often an IC50 or EC50 that approximates it; bounds were set here for any values at or beyond the usual limits of such assays
# Settings: source organism: Mammarenavirus brazilense
pKd: −log10 of the molar value.
Recorded pKd by entry

PDFNELFQL = ≤ 4.11

Proceed to the following item.
Answer with pKd of `EDQGNPIVL` measured for HLA-B*18:01. ≤ 4.28

---

# Tested on: HLA-A*01:01
# Assay comment: IEDB peptide-MHC binding, purified MHC/direct/fluorescence; filed as Kd, often an IC50 or EC50 that approximates it; bounds were set here for any values at or beyond the usual limits of such assays
# Settings: source organism: Edwardsiella tarda
Recorded metric: Kd

Supply recorded Kd for `AFGLFWLVW` here. ≥ 20 µM

---

# Tested on: HLA-A*24:03
# Assay comment: IEDB peptide-MHC binding, purified MHC/direct/fluorescence; filed as Kd, often an IC50 or EC50 that approximates it; bounds were set here for any values at or beyond the usual limits of such assays
# Settings: source organism: Brucella suis 1330
Recorded metric: Kd

Supply recorded Kd for `MHCDFAFWV` here. ≥ 20 µM

---

# Tested on: HLA-B*46:01
# Assay comment: IEDB peptide-MHC binding, purified MHC/competitive/fluorescence; filed as Kd, often an IC50 or EC50 that approximates it; bounds were set here for any values at or beyond the usual limits of such assays
# Settings: source organism: Cryptococcus neoformans var. neoformans B-3501A
pKd: −log10 of the molar value.
Recorded metric: pKd

Supply recorded pKd for `AIDDFCLFA` here. ≤ 4.70

---

# Tested on: HLA-B*15:17
# Assay comment: IEDB peptide-MHC binding, purified MHC/competitive/fluorescence; filed as Kd, often an IC50 or EC50 that approximates it; bounds were set here for any values at or beyond the usual limits of such assays
# Settings: source organism: Escherichia coli str. K-12 substr. W3110
pKd: −log10 of the molar value.
Recorded metric: pKd

Supply recorded pKd for `IQFDWYPTS` here. ≤ 4.70

---

# Tested on: HLA-A*02:12
# Assay comment: IEDB peptide-MHC binding, purified MHC/direct/fluorescence; filed as Kd, often an IC50 or EC50 that approximates it; bounds were set here for any values at or beyond the usual limits of such assays
# Settings: source organism: Orthohantavirus tulaense
Recorded metric: Kd

Supply recorded Kd for `AESICSYWL` here. ≥ 20 µM

---

# Tested on: HLA-B*39:01
# Assay comment: IEDB peptide-MHC binding, purified MHC/direct/fluorescence; filed as Kd, often an IC50 or EC50 that approximates it; bounds were set here for any values at or beyond the usual limits of such assays
# Settings: source organism: Variola virus
pKd: −log10 of the molar value.
Recorded metric: pKd

Supply recorded pKd for `MTRVTNNVY` here. ≤ 4.70

---

# Tested on: HLA-A*29:02
# Assay comment: IEDB peptide-MHC binding, purified MHC/direct/fluorescence; filed as Kd, often an IC50 or EC50 that approximates it; bounds were set here for any values at or beyond the usual limits of such assays
# Settings: source organism: Ebola virus - Gabon (1994-1997)
Recorded metric: Kd

Supply recorded Kd for `QLSLKMLSL` here. ≥ 20 µM

---

# Tested on: HLA-B*46:01
# Assay comment: IEDB peptide-MHC binding, purified MHC/competitive/fluorescence; filed as Kd, often an IC50 or EC50 that approximates it; bounds were set here for any values at or beyond the usual limits of such assays
# Settings: source organism: Salmonella enterica subsp. enterica serovar Typhi
Recorded metric: pKd
Schema: pKd number; meaning minus log10 of the concentration expressed in molar units.

Supply recorded pKd for `YQKKNASVY` here. 6.53

---

# Tested on: HLA-A*03:01
# Assay comment: IEDB peptide-MHC binding, purified MHC/direct/fluorescence; filed as Kd, often an IC50 or EC50 that approximates it; bounds were set here for any values at or beyond the usual limits of such assays
# Settings: source organism: Influenza A virus (A/Viet Nam/HN/2004(H5N1))
pKd: −log10 of the molar value.
Recorded metric: pKd

Supply recorded pKd for `RNEQGQTLW` here. ≤ 4.70
